Reference source: the supplement of paper PMC10567573

variants and their reported protein stability index
B1: RHOBTB3 (parent)
chain: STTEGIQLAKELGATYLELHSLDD

- Variants of: B1
- assay_comment: protein stability index of a GFP-peptide fusion (GPS, HEK-293T) (PSI 1-6); higher = more stable;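 further: lentivirally expressed fusions sorted by FACS into six bins by GFP to DsRed ratio, PSI derived from sequencing read proportions per bin multiplied by bin number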
- run_parameters: c terminus: a fixed tail appended

variant_description | protein stability index
H20P | 4.93
Q7L | 2.95
Q7Y | 3.52
G13R | 1.66
K10P | 4.33
S21E | 3.93
G13S | 3.35
D24M | 1.38
L12P | 4.42
D23S | 3
K10R | 2.99
K10T | 1.84
D24T | 2.05
I6C | 5.12
A14L | 3.15
D24Y | 2.7
D23R | 2.81
L19R | 4.43
H20V | 1.65
D24I | 2.7
T15K | 4.33
L22P | 4.54
